System: HEK-293T
Assay: Multiplex assay against HEK293T
Format: toxicity, cell-based
Settings: human, 24 h, 1 µM, compound concentration 1 uM, replicate 2
valueKind: Population Pyknosed Nuclei (%)
Write down the numeric answer in % and omit the unit.

Form field Population Pyknosed Nuclei (%), entry CCCN1CCC[C@@H]2Cc3n[nH]cc3C[C@H]21.Cl [QUINPIROLE HYDROCHLORIDE] : 9

Form field Population Pyknosed Nuclei (%), entry Cc1ccc(C(C)(O)c2nc3ccccc3s2)c(C)c1 (stereo not given) : 7

Form field Population Pyknosed Nuclei (%), entry COc1c(C)cc(NC(=O)c2nn(Cc3ccc(F)cc3)c3c2CN(C(=O)c2ccc[nH]2)C[C@]3(C)C(N)=O)cc1C : 7

Form field Population Pyknosed Nuclei (%), entry O=C(NCCO)c1cccc(-c2cc(Nc3ccc(OC(F)(F)F)cc3)ncn2)c1 : 13

Form field Population Pyknosed Nuclei (%), entry CCCn1c(=O)c2[nH]c(C3CCCC3)nc2n(CCC)c1=O : 10

###

Test system: HEK-293T
Test: Multiplex assay against HEK293T
Type: toxicity, cell-based
Conditions: human, 48 h, 1 µM, compound concentration 1 uM, replicate 1
Please respond with reported Population Membrane Permeable-Phenotype (%) for every item in the list.
Write down the numeric answer in % and omit the unit.

Form field Population Membrane Permeable-Phenotype (%), entry COc1ccc2c(c1)C(C(=O)N(Cc1ccc(N(C)C)cc1)c1ccc(C(C)C)cc1)CCC2.Cl (centres undefined) : 1

Form field Population Membrane Permeable-Phenotype (%), entry CNC[C@H](O)c1ccc(O)c(O)c1 [EPINEPHRINE] : 1

Form field Population Membrane Permeable-Phenotype (%), entry c1cc(OCCCN2CCCCC2)ccc1CN1CCCCC1 : 1

Form field Population Membrane Permeable-Phenotype (%), entry CN(C)CCCc1cc(C(=O)Nc2ccc(-c3ccncc3)cc2)ccc1O.Cl.Cl : 2

Form field Population Membrane Permeable-Phenotype (%), entry CC1(COc2ccc3c(c2)ncn3-c2ccc3cccc(N4CCC(N)CC4)c3n2)COC1 : 1

Form field Population Membrane Permeable-Phenotype (%), entry COc1cc(NC(=O)CCN2CCC(OC(=O)Nc3ccccc3-c3ccccc3)CC2)c(Cl)cc1CNC[C@H](O)c1ccc(O)c2[nH]c(=O)ccc12 : 0

Form field Population Membrane Permeable-Phenotype (%), entry CCCC(CCC)C(=O)O : 3

Form field Population Membrane Permeable-Phenotype (%), entry CCCn1c(=O)c2[nH]c(C3CCCC3)nc2n(CCC)c1=O : 1

Form field Population Membrane Permeable-Phenotype (%), entry O=C(NCCO)c1cccc(-c2cc(Nc3ccc(OC(F)(F)F)cc3)ncn2)c1 : 2

###

Please respond with reported Population Hoechst High Intensity Objects (%) for every item in the list.
System: Fibroblast
Assay: Multiplex assay against human fibroblast
Assay type: toxicity, cell-based
Settings: 24 h, 1 µM, compound concentration 1 uM, replicate 1
Write down the numeric answer in % and omit the unit.

Value (Population Hoechst High Intensity Objects (%), Fibroblast) for record CCCn1c(=O)c2[nH]c(C3CCCC3)nc2n(CCC)c1=O = 2

Value (Population Hoechst High Intensity Objects (%), Fibroblast) for record O=S(=O)(c1ccccc1)c1cnc2c(N3CCNCC3)cccc2c1 [INTEPIRDINE] = 5

Value (Population Hoechst High Intensity Objects (%), Fibroblast) for record c1cc(OCCCN2CCCCC2)ccc1CN1CCCCC1 [JNJ-5207852] = 2

Value (Population Hoechst High Intensity Objects (%), Fibroblast) for record O=C1COc2nccc(-c3ccccc3F)c2CN1Cc1cc(C(F)(F)F)cc(C(F)(F)F)c1 = 3

Value (Population Hoechst High Intensity Objects (%), Fibroblast) for record CSc1ccccc1N1CCN(CCCCCC(=O)NC2CCCc3ccccc32)CC1.Cl (stereo not given) = 6
